Origin of values: patent US20030096379A1

biological target: tryptophan decarboxylase TDC2 (Camptotheca acuminata); construct: made in house; host or cells: E. coli DH5α (pKK233 plasmid from C. Nessler); assay: Substrate screen for tryptophan decarboxylation, TDC2; format: biochemical, C. accuminata; set-up: key: +: a clear ninhydrin-positive spot at the Rf of standard tryptophan derivatives after 16-65 h; (+): a weak spot in the product region; −: no product observed; NR: experiment not run; conditions: tryptophan derivative, PLP, pH 7.5, 37° C.
Sequence (P93083 whole entry): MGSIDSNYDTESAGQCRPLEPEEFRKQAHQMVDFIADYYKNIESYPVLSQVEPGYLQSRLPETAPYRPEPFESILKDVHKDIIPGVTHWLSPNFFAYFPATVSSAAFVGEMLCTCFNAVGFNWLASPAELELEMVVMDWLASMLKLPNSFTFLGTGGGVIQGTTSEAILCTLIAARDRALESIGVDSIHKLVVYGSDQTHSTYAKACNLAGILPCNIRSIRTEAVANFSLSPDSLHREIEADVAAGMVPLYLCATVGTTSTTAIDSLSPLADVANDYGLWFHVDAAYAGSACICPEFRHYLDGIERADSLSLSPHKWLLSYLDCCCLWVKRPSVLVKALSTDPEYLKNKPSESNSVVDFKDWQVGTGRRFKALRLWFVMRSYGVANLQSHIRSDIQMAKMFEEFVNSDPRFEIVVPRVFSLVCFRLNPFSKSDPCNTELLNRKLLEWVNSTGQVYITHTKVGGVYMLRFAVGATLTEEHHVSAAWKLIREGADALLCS

{"columns": ["COMPOUND", "TDC2 (decarboxylation substrate screen)"],
 "data": [
  ["Cc1ccc2c(CC(N)C(=O)O)c[nH]c2c1 (racemic) [DL-6-methyl-trp]", "+"],
  ["NC(Cc1c[nH]c2cccc(F)c12)C(=O)O (racemic) [DL-4-fluoro-trp]", "+"],
  ["COC(=O)Nc1ccc2[nH]cc(C[C@H](N)C(=O)O)c2c1 [L-5-(methoxycarbonyl)-amino-trp, 5-(Methoxycarbonyl)amino-L-tryptophan]", "+"],
  ["Cc1cccc2[nH]cc(CC(N)C(=O)O)c12 (racemic) [DL-4-methyl-trp]", "+"],
  ["NC(Cc1c[nH]c2ccc(F)cc12)C(=O)O (racemic) [DL-5-fluoro-trp]", "(+)"],
  ["Cc1ccc2[nH]cc(CC(N)C(=O)O)c2c1 (racemic) [DL-5-methyl-trp]", "+"]
]}

====

Molecular target: tryptophanase (TnA) (Escherichia coli, UniProt P0A853)
Construct: made in house; host or cells: E. coli LMG194 (pBAD) or BL-21 (pET)
Sequence (P0A853 whole entry): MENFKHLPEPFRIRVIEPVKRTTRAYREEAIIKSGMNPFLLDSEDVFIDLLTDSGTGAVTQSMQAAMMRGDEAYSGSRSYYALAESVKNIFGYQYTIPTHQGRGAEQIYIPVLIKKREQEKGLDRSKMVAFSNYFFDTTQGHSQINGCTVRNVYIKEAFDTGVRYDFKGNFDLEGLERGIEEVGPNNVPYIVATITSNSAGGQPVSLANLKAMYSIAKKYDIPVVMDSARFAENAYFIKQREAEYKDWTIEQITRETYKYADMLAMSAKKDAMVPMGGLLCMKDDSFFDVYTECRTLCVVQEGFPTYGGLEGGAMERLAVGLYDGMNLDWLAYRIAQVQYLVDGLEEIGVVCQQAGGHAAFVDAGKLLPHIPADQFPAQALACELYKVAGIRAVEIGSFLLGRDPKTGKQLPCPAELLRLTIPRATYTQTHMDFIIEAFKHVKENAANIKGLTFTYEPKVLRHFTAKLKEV
Assay type: biochemical, E. coli
Design: key: +: a clear ninhydrin-positive spot at the Rf of standard tryptophan derivatives after 16-65 h; (+): a weak spot in the product region; −: no product observed; NR: experiment not run
Conditions: indole derivative + L-serine + PLP, 37° C., 16-65 h, ninhydrin
Procedure: A mixture containing 2 μmole of the indole derivative, 0.05 μmole of PLP and 50 μmol of L-serine in 40 mM KPi buffer in 8% v/v ethanol water, pH 7.5, was warmed to 37° C., then enzyme solution was added to give a final volume of 1 mL. […] The residues were resuspended in methanol/water (1:1, 50 μL) and analyzed by TLC on Silica gel GF254 plates alongside tryptophan and tryptamine standards, eluting with CH2Cl2/EtOH/H2O/HOAc 77:20:2:1. […]
MEASUREMENT KIND: TnA (tryptophan product spot, TLC analysis)

{"columns": ["MOLECULE", "VALUE MEASURED"],
 "data": [
  ["Cc1ccc2[nH]c(C)cc2c1 [2,5-dimethyl-]", "−"],
  ["Clc1ccc2cc[nH]c2c1 [6-chloroindole]", "+"],
  ["O=[N+]([O-])c1ccc2[nH]ccc2c1 [5-nitro-]", "−"],
  ["Oc1ccc2[nH]ccc2c1 [5-hydroxy-]", "+"]
]}

====

biological target: pig kidney aromatic amino acid decarboxylase (pkAAAD) (Sus scrofa); construct: Frozen tissue was partially thawed in lysis buffer, then it was extracted and partially purified; from tissue; host or cells: pig kidney; assay: Substrate screen for tryptophan decarboxylation, pkAAAD; type: biochemical; design: key: +: a clear ninhydrin-positive spot at the Rf of standard tryptophan derivatives after 16-65 h; (+): a weak spot in the product region; −: no product observed; NR: experiment not run; details: tryptophan derivative, PLP, pH 7.5, 37° C.
MEASUREMENT KIND: pkAAAD (decarboxylation substrate screen)

{"columns": ["COMPOUND", "VALUE MEASURED"],
 "data": [
  ["COC(=O)Nc1ccc2[nH]cc(C[C@H](N)C(=O)O)c2c1 [L-5-(methoxycarbonyl)-amino-trp, 5-(Methoxycarbonyl)amino-L-tryptophan]", "−"],
  ["N[C@@H](Cc1c[nH]c2cccc(CO)c12)C(=O)O [L-4-(hydroxymethyl)-trp, 4-(Hydroxymethyl)-L-tryptophan]", "(+)"],
  ["Cc1cccc2c(CC(N)C(=O)O)c[nH]c12 (racemic) [DL-7-methyl-trp]", "−"],
  ["N[C@@H](Cc1c[nH]c2ccc(O)cc12)C(=O)O [L-5-hydroxy-trp, L-5-hydroxytryptophan, reference compound]", "+"],
  ["Cc1cccc2[nH]cc(CC(N)C(=O)O)c12 (racemic) [DL-4-methyl-trp]", "−"],
  ["NC(Cc1c[nH]c2ncccc12)C(=O)O (racemic) [DL-7-aza-trp]", "−"],
  ["N[C@@H](Cc1c[nH]c2ccccc12)C(=O)O [L-tryptophan]", "(+)"]
]}

====

Target: synAAAD (synthetic gene based on pkAAAD protein sequence) (Sus scrofa)
Construct: made in house; host or cells: E. coli (pET-15 vector)
Sequence (P80041 1-486): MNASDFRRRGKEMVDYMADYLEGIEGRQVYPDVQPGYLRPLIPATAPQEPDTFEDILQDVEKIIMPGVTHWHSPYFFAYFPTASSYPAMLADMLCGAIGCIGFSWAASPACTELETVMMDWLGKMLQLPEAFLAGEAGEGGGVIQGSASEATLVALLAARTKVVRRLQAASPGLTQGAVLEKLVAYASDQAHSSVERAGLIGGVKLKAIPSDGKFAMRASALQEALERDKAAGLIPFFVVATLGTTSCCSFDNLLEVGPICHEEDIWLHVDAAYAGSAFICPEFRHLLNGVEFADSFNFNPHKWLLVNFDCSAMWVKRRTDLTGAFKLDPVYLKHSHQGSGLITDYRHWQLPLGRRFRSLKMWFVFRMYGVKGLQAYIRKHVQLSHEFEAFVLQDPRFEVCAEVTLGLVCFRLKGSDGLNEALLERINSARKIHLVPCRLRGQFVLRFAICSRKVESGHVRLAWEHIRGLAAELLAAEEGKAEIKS
Test: Substrate screen for tryptophan decarboxylation, SynAAAD
Format: biochemical
Set-up: key: +: a clear ninhydrin-positive spot at the Rf of standard tryptophan derivatives after 16-65 h; (+): a weak spot in the product region; −: no product observed; NR: experiment not run
Conditions: tryptophan derivative, PLP, pH 7.5, 37° C.
MEASUREMENT KIND: SynAAAD (decarboxylation substrate screen)

{"columns": ["MOLECULE", "VALUE MEASURED"],
 "data": [
  ["N[C@@H](Cc1c[nH]c2cccc(CO)c12)C(=O)O [L-4-(hydroxymethyl)-trp, 4-(Hydroxymethyl)-L-tryptophan]", "+"],
  ["N[C@@H](Cc1c[nH]c2ccc(CO)cc12)C(=O)O [L-5-(hydroxymethyl)-trp]", "−"],
  ["N[C@@H](Cc1c[nH]c2ccc(O)cc12)C(=O)O [L-5-hydroxy-trp, L-5-hydroxytryptophan, reference compound]", "+"],
  ["Cc1ccc2c(CC(N)C(=O)O)c[nH]c2c1 (racemic) [DL-6-methyl-trp]", "(+)"],
  ["Cc1ccc2[nH]cc(CC(N)C(=O)O)c2c1 (racemic) [DL-5-methyl-trp]", "−"]
]}

====

molecular target: TnA (Escherichia coli); construct: made in house; host or cells: E. coli LMG194 (pBAD) or BL-21 (pET); experiment: Relative rates of tryptophan derivative synthesis by HPLC, TnA; type: biochemical, E. coli; settings: initial rate estimated by HPLC, indole = 100%, L-serine as the 3-carbon substrate
Reported values of Relative Rate (TnA) for individual entries
MEASUREMENT KIND: Relative Rate (TnA) (%)

{"columns": ["COMPOUND", "MEASUREMENT KIND", "VALUE MEASURED"],
 "data": [
  ["OCc1ccc2[nH]ccc2c1 [5-hydroxymethyl-, indole-5-methanol]", "Relative Rate (TnA)", 1.2],
  ["c1cc2cc3c(cc2[nH]1)OCO3", "Relative Rate (TnA)", 1.0],
  ["c1ccc2[nH]ccc2c1 [indole, reference compound]", "Relative Rate (TnA)", 100],
  ["COc1cc2cc[nH]c2cc1OC", "Relative Rate (TnA)", 2.1]
]}

====

molecular target: TrpBA (Escherichia coli); construct: made in house; host or cells: E. coli LMG194 (pBAD) or BL-21 (pET); experiment: Relative rates of tryptophan derivative synthesis by HPLC, TrpBA; assay type: biochemical, E. coli; details: initial rate estimated by HPLC, indole = 100%, L-serine
Sequence (P0A879 whole entry): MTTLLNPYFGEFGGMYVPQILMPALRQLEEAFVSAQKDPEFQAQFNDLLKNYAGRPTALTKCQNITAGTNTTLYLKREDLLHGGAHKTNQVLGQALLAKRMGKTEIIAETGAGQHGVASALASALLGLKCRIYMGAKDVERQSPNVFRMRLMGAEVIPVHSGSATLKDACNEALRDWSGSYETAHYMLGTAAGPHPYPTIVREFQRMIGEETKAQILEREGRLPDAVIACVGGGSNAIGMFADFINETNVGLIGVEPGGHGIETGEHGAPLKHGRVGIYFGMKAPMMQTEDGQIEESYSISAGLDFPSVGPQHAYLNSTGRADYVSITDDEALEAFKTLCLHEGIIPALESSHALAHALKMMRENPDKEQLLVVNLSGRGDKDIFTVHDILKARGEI
Sequence (P0A877 whole entry, further chain): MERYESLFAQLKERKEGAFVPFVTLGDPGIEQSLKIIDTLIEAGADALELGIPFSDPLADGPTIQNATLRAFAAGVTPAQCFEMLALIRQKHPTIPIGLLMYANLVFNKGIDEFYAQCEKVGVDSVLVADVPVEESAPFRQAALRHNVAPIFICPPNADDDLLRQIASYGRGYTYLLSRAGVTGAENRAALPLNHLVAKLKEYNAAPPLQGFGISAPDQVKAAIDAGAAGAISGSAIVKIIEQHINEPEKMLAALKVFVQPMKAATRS
In this section, each of the compounds is paired with its reported Relative rate (TrpBA).
MEASUREMENT KIND: Relative rate (TrpBA) (%)

{"columns": ["COMPOUND", "TESTED ON", "VALUE MEASURED"],
 "data": [
  ["OCc1ccc2[nH]ccc2c1 [5-hydroxymethyl-, indole-5-methanol]", "TrpBA (Escherichia coli)", 0.03],
  ["Cc1ccc2[nH]ccc2c1 [5CH3]", "TrpBA (Escherichia coli)", 0.55],
  ["COc1ccc2[nH]ccc2c1 [5-methoxy-]", "TrpBA (Escherichia coli)", 19.0],
  ["c1cc2cc3c(cc2[nH]1)OCO3 [5,6-methylenedioxy-]", "TrpBA (Escherichia coli)", 0.018],
  ["c1ccc2[nH]ccc2c1 [indole, reference compound]", "TrpBA (Escherichia coli)", 100]
]}
